Test system: Nucleic Acid
Test: Compound was tested for its binding affinity towards poly(GC)
Type: nucleic-acid assay
quantityName: K (M⁻¹)
Write it as a number; the unit M⁻¹ goes unstated.

INSERT INTO results (smiles, experimentalresult) VALUES
  ('CCOc1cc2c3cc(OC)c(OC)cc3c[n+](C)c2c2cc(OC)c(OC)cc12', 100000),
  ('CCOc1cc2c3cc(OC)c(OC)cc3c(C)[n+](C)c2c2cc(OC)c(OC)cc12', 50000),
  ('COc1cc2c(ccc3c4cc(OC)c(OC)cc4c[n+](C)c23)cc1O', '1.1e+06'),
  ('CCOc1cc2c3cc(OC)c(OC)cc3c[n+](C)c2c2cc(OC)c(OS(C)(=O)=O)cc12.CS(=O)(=O)[O-]', 53000);

Then there is this compound:
K for `CCOc1cc2c3cc(OC)c(OC)cc3c[n+](C)c2c2cc(OC)c(O)cc12.[I-]` ?
60000
